Every entry's value here was drawn from patent US20230287125A1.

# target: T1, human PD-L1-his tag protein (human, UniProt Q9NZQ7 19-238)
# T1 construct: also called human PD-L1-His protein; recombinant PD-L1 protein; not shown: his tag
# T1 sequence (Q9NZQ7 19-238 limits assumed): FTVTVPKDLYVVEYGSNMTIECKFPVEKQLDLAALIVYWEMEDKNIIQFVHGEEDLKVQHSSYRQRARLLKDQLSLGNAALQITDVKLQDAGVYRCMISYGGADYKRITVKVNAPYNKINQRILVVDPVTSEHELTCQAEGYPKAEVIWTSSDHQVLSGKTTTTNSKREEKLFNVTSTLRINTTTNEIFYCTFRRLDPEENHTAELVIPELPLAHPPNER
# assay-text: SPR (Biacore T200), mAb captured on Protein A chip, PD-L1-his injected
measure: koff (s⁻¹)
Unit s⁻¹ implied. Number only.

Hu67F3G7-7 (antibody, V domains shown, humanized) VH: EVQLVQSGAEVKKPGASVKVSCKASGYTFTDFWVSWVRQAPGQGLEWMGEIYPNSGVSRYNEKFKGRVTMTVDKSISTAYMELSRLRSDDTAVYYCTKYFGYTYWFGYWGQGTLVTVSS VL: DTVLTQSPSSLSASVGDRVTITCRASKSVSTYMHWYQQKPGKAPKLLIYSASHLESGVPSRFSGSGSGTDFTLTISSLQPEDFATYYCQQSNELPVTFGGGTKVEIK
7.25e-05

Then this binder:
Ask: For the binder shown here, Hu67F3G7-22 (antibody, V domains shown, humanized) VH: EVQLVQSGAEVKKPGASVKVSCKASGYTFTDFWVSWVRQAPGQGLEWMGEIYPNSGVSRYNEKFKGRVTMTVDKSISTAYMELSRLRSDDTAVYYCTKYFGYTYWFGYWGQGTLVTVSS VL: DIQMTQSPSSLSASVGDRVTITCRASKSVSTYMHWYQQKPGKQPKLLIYSASHLESGVPSRFSGSGSGTDFTLTISSLQPEDFATYYCQQSNELPVTFGGGTKVEIK , give the reported koff.
Reply: 5.79e-05
